experiment: Cytotoxicity, morphology of HeLa cells; conditions: human
observedProperty: CC50 (µg/mL)
Numbers only, in µg/mL.

Can you look up the measured CC50 of Cc1cc2nc(CNc3ccncc3)[nH]c2cc1Br for me?
56.2

* * *

Consider the following molecules; for each one, report its CC50.
assay: in vitro; conditions: monkey, llc-mk2 cells

Below, 10 molecules whose answers are already recorded.
Can you look up the measured CC50 of Fc1cc2nc(CNc3ccncc3)[nH]c2cc1Cl for me?
> 100 µg/mL

Can you look up the measured CC50 of OCCCn1c(CNc2ccncc2)nc2ccccc21 for me?
> 1000 µg/mL

Can you look up the measured CC50 of OCCn1c(CNc2ccncc2)nc2ccccc21 for me?
> 2000 µg/mL

Can you look up the measured CC50 of CCc1cc2c(cc1Cl)nc(CNc1ccncc1)n2-c1ccccc1 for me?
> 100 µg/mL

Can you look up the measured CC50 of Cn1c(CNc2ccncc2)nc2ccc(Cl)cc21 for me?
> 100 µg/mL

Can you look up the measured CC50 of Cn1c(CNc2ccncc2)nc2ccccc21 for me?
> 1000 µg/mL

Can you look up the measured CC50 of Ic1ccc(-n2c(CNc3ccncc3)nc3ccccc32)cc1 for me?
> 100 µg/mL

Can you look up the measured CC50 of Clc1ccc(-n2c(CNc3ccncc3)nc3ccccc32)cc1 for me?
> 1000 µg/mL

Can you look up the measured CC50 of CC(C)(C)c1ccc2[nH]c(CNc3ccncc3)nc2c1 for me?
> 100 µg/mL

Can you look up the measured CC50 of CCOCCn1c(CNc2ccncc2)nc2ccccc21 for me?
> 2000 µg/mL

Each molecule below has a reported value. Please supply its CC50.
1. Cc1ccc2nc(CNc3ccncc3)n(-c3ccccc3)c2c1
2. OCCCCn1c(CNc2ccncc2)nc2ccccc21
3. CCCCn1c(CNc2ccncc2)nc2ccccc21
4. CC(C)c1ccc2[nH]c(CNc3ccncc3)nc2c1
5. c1ccc(-c2ccc3[nH]c(CNc4ccncc4)nc3c2)cc1
6. Fc1ccc(-n2c(CNc3ccncc3)nc3ccccc32)cc1
7. CCOc1ccc2[nH]c(CNc3ccncc3)nc2c1

["> 100 µg/mL", "> 100 µg/mL", "> 2000 µg/mL", "> 1000 µg/mL", "> 100 µg/mL", "> 2000 µg/mL", "> 100 µg/mL"]
